Target: UniProtKB P10275
Experiment: AR-VP16 DNA Binding Assay, antagonist mode (HepG2 cells, 0.1 nM R1881)
pIC50: −log10 of the molar value.

MOL | pIC50
N#Cc1ncc(N2C(=O)C3(CCC3)N(c3ccc(OCCN4CCCCC4)c(F)c3)C2=S)cc1C(F)(F)F | > 6.00
N#Cc1ncc(N2C(=O)C3(CCC3)N(c3ccc(F)c(C(=O)NCCN4CCCC4)c3)C2=S)cc1C(F)(F)F | < 6.00
N#Cc1ncc(N2C(=O)C3(CCC3)N(c3ccc(C(=O)Nc4ccncc4)c(F)c3)C2=S)cc1C(F)(F)F | > 6.00
Cc1cc(N2C(=O)C3(CCC3)N(c3ccc(C(=O)NCC4CCOCC4)c(F)c3)C2=S)cnc1C#N | < 6.00
N#Cc1ccc(N2C(=S)N(c3cnc(C#N)c(C(F)(F)F)c3)C(=O)C23CCC3)c(F)c1 | > 6.00
CCCNC(=O)c1ccc(N2C(=S)N(c3cnc(C#N)c(C(F)(F)F)c3)C(=O)C23CCC3)cc1F | > 6.00
Cc1cc(N2C(=O)C3(CCC3)N(c3ccc(C(=O)Nc4nccs4)c(F)c3)C2=S)cnc1C#N | > 6.00

###

Recorded IC50 by entry
Target: AR-VP16 (Homo sapiens)
Sequence (P10275 560-920 limits assumed): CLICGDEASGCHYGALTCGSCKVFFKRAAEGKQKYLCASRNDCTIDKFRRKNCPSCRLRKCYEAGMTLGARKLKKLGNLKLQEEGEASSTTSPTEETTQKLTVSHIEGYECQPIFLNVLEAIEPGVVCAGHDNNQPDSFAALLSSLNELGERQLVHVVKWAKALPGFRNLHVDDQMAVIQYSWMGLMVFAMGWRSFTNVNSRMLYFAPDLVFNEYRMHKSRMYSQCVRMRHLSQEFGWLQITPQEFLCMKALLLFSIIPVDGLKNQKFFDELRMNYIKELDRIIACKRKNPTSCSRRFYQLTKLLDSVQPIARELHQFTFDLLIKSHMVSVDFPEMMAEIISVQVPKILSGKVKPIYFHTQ
Experiment: AR-VP16 DNA Binding Assay, antagonist mode (HepG2 cells, 0.1 nM R1881)
Protocol: Cells were transiently transfected using Lipofectin (Life Technologies) according to the manufacturer's protocol. […] Transfected cells were incubated overnight then treated with ligand. […] For antagonist assays, the compounds were serially diluted and 50 μL of compound with RPMI supplemented with charcoal stripped serum plus methyltrienolone (R1881) were added to the cells. The final R1881 concentration used in the antagonist assays was 0.1 nM. […]

MOL | IC50
N#Cc1ncc(N2C(=O)C3(CCC3)N(c3ccc(F)c(OCCCN4CCOCC4)c3)C2=S)cc1C(F)(F)F | > 1 µM
N#Cc1ncc(N2C(=O)C3(CCC3)N(c3ccc(C(=O)NCCc4ccncc4)c(F)c3)C2=S)cc1C(F)(F)F | > 1 µM
Cc1cc(N2C(=O)C3(CCC3)N(c3ccc(C(=O)Nc4ccc(F)cc4)c(F)c3)C2=S)cnc1C#N | < 1 µM
COCCOc1ccc(N2C(=S)N(c3cnc(C#N)c(C(F)(F)F)c3)C(=O)C23CCC3)cc1F | < 1 µM
CNC(=O)CCCc1ccc(N2C(=S)N(c3cnc(C#N)c(C(F)(F)F)c3)C(=O)C23CCC3)cc1 | < 1 µM
Cc1cc(N2C(=O)C3(CCC3)N(c3ccc(C(=O)Nc4ccnn4C)c(F)c3)C2=S)cnc1C#N | < 1 µM
Cc1cc(N2C(=O)C3(CCC3)N(c3ccc(OCCN4CCN(C)CC4)cc3)C2=S)cnc1C#N | < 1 µM

###

Target: AR-VP16 (Homo sapiens)
Assay: AR-VP16 DNA Binding Assay, antagonist mode (HepG2 cells, 0.1 nM R1881)
pIC50: −log10 of the molar value.
Each entry below lists one item and its recorded pIC50 value.
MEASUREMENT LABEL: pIC50

MOL | RECORDED MEASUREMENT
CN1CCN(CCNC(=O)c2ccc(N3C(=S)N(c4cnc(C#N)c(C(F)(F)F)c4)C(=O)C34CCC4)cc2F)CC1 | < 6.00
Cn1ncc(Br)c1CCNC(=O)c1ccc(N2C(=S)N(c3cnc(C#N)c(C(F)(F)F)c3)C(=O)C23CCC3)cc1F | > 6.00
N#Cc1ncc(N2C(=O)C3(CCC3)N(c3ccc(C(=O)NCc4ccncc4)c(F)c3)C2=S)cc1C(F)(F)F | > 6.00
COC(=O)CCCc1ccc(N2C(=S)N(c3cnc(C#N)c(C(F)(F)F)c3)C(=O)C23CCC3)cc1 | < 6.00
N#Cc1ccc(N2C(=S)N(c3cnc(C#N)c(C(F)(F)F)c3)C(=O)C23CCC3)cc1F | > 6.00

Origin of values: patent US9108944B2
